Every entry's value here was drawn from paper PMC11096368.

Test: Phase 1 single ascending dose (SAD) pharmacokinetics incl. food effect
Assay type: in vivo, human
Conditions: human, plasma, oral, 900 mg, Cohort 3, Regimen D, Fed; geometric mean (geometric CV%)
VALUE_KIND: half-life (min)
Kindly provide the numeric value in min only, without the unit symbol.

Problem: Return the recorded half-life value; entry: CCN(CC)C(=O)c1ccccc1S(=O)(=O)NCC(=O)Nc1ccc(O)cc1 [SRP-001]
Result: 228

* * *

Test: 5-day repeat-dose oral toxicity and toxicokinetic study (non-GLP)
Assay type: in vivo, rats
Settings: Sprague-Dawley, rat, blood, po, high dose
VALUE_KIND: half-life (h)
The answer is to be given in h; state only the numeric part.

Problem: Return reported half-life. Input molecule: CCN(CC)C(=O)c1ccccc1S(=O)(=O)NCC(=O)Nc1ccc(O)cc1 [SRP-001]
Result: 6.86

* * *

Test: Phase 1 single ascending dose (SAD) pharmacokinetics incl. food effect
Assay type: in vivo, human
Conditions: human, plasma, po, 600 mg, Cohort 2, Regimen B, 600 mg oral suspension, Fasted, N 6
VALUE_KIND: Tmax

Problem: Supply measured Tmax of CCN(CC)C(=O)c1ccccc1S(=O)(=O)NCC(=O)Nc1ccc(O)cc1 [SRP-001] in your reply.
Result: 1 to 2 h

* * *

Assay: Phase 1 multiple ascending dose (MAD) pharmacokinetics
Assay type: in vivo, human
Settings: human, plasma, oral, 500 mg, MAD, 500 mg dose, Day 5; read-out: Geometric mean T1/2 (converted)
VALUE_KIND: half-life (h)
Your answer should be a plain number; it is taken to be in h.

Problem: Read the entry "CCN(CC)C(=O)c1ccccc1S(=O)(=O)NCC(=O)Nc1ccc(O)cc1" and write its reported half-life.
Result: 4.92

* * *

Experiment: Phase 1 single ascending dose (SAD) pharmacokinetics incl. food effect
Type: in vivo, human
Conditions: human, plasma, oral, 600 mg, Cohort 2, Regimen B, Fasted; geometric mean (geometric CV%)
VALUE_KIND: Cmax (ng/mL)
Give the number; ng/mL is assumed, so skip it.

Problem: Supply Cmax value. Item: "CCN(CC)C(=O)c1ccccc1S(=O)(=O)NCC(=O)Nc1ccc(O)cc1"
Result: 1740

* * *

Test: Phase 1 single ascending dose (SAD) pharmacokinetics incl. food effect
Format: in vivo, human
Details: human, plasma, oral, 900 mg, Cohort 3, Regimen D, Fed; geometric mean (geometric CV%)
VALUE_KIND: AUC(0-inf)

Problem: Consider the compound "CCN(CC)C(=O)c1ccccc1S(=O)(=O)NCC(=O)Nc1ccc(O)cc1" and give its recorded AUC(0-inf).
Result: 5910 ng·h/mL

* * *

Test: Phase 1 single ascending dose (SAD) pharmacokinetics incl. food effect
Type: in vivo, human
Settings: human, plasma, oral, 900 mg, Cohort 3, Regimen C, 900 mg, Fasted; geometric mean (geometric CV%); read-out: AUC0-24
VALUE_KIND: AUC(0-t) (ng·h/mL)
Unit ng·h/mL implied. Number only.

Problem: Specify reported AUC(0-t) for the compound shown: "CCN(CC)C(=O)c1ccccc1S(=O)(=O)NCC(=O)Nc1ccc(O)cc1"
Result: 6870

* * *

Assay: Phase 1 single ascending dose (SAD) pharmacokinetics incl. food effect
Format: in vivo, human
Details: human, plasma, oral, 300 mg, Cohort 1, Regimen A, 300 mg, Fasted; geometric mean (geometric CV%); read-out: AUC0-24
VALUE_KIND: AUC(0-t)

Problem: Identify AUC(0-t) associated with the molecule "CCN(CC)C(=O)c1ccccc1S(=O)(=O)NCC(=O)Nc1ccc(O)cc1"
Result: 1620 ng·h/mL

* * *

Assay: 28-day oral toxicity study with 14-day recovery (GLP)
Assay type: in vivo, dog
Settings: both sexes, Beagle, dog, in vivo, oral; given T.I.D. for 28 days; read-out: No adverse effect level (NOAEL)
VALUE_KIND: NOAEL at 28 d
A complete answer gives the number followed by the unit.

Problem: In one line, give reported NOAEL at 28 d of the entry "CCN(CC)C(=O)c1ccccc1S(=O)(=O)NCC(=O)Nc1ccc(O)cc1" .
Result: 330 mg/kg/day

* * *

Assay: Phase 1 single ascending dose (SAD) pharmacokinetics incl. food effect
Type: in vivo, human
Settings: human, plasma, oral, 900 mg, Cohort 3, Regimen C, Fasted; geometric mean (geometric CV%)
VALUE_KIND: Cmax
Answer with the figure and its unit, nothing else.

Problem: For CCN(CC)C(=O)c1ccccc1S(=O)(=O)NCC(=O)Nc1ccc(O)cc1 [SRP-001] , write its Cmax.
Result: 2700 ng/mL

* * *

Assay: 28-day oral toxicity study with 14-day recovery (GLP)
Format: in vivo, rats
Details: both sexes, Sprague-Dawley, rat, in vivo, oral; once daily for 28 days; read-out: No-adverse effect level (NOAEL)
VALUE_KIND: NOAEL at 28 d (mg/kg)
Please reply with the bare figure in mg/kg and do not write the unit itself.

Problem: Write down NOAEL at 28 d measured for item "CCN(CC)C(=O)c1ccccc1S(=O)(=O)NCC(=O)Nc1ccc(O)cc1"
Result: 1500

* * *

Test: Phase 1 single ascending dose (SAD) pharmacokinetics incl. food effect
Assay type: in vivo, human
Conditions: human, plasma, po, 2000 mg, Cohort 4, Regimen E, 2000 mg oral suspension, Fasted, N 6
VALUE_KIND: Tmax

Problem: Write down Tmax measured for item "CCN(CC)C(=O)c1ccccc1S(=O)(=O)NCC(=O)Nc1ccc(O)cc1"
Result: 1 to 2 h

* * *

Test: Phase 1 multiple ascending dose (MAD) pharmacokinetics
Format: in vivo, human
Conditions: human, plasma, oral, 1000 mg, MAD, 1,000 mg dose, Day 5; read-out: Geometric mean T1/2 (converted)
VALUE_KIND: half-life (h)
Expressed in h, but write only the number.

Problem: Give me measured half-life, please, for this molecule: "CCN(CC)C(=O)c1ccccc1S(=O)(=O)NCC(=O)Nc1ccc(O)cc1"
Result: 9.77

* * *

Assay: Phase 1 single ascending dose (SAD) pharmacokinetics incl. food effect
Format: in vivo, human
Conditions: human, plasma, oral, 2000 mg, Cohort 4, Regimen E, 2000 mg, Fasted; geometric mean (geometric CV%); read-out: AUC0-last
VALUE_KIND: AUC(0-t) (ng·h/mL)
# value in ng·h/mL; strip the unit string

Problem: Specify measured AUC(0-t) for CCN(CC)C(=O)c1ccccc1S(=O)(=O)NCC(=O)Nc1ccc(O)cc1 [SRP-001] .
Result: 19100

* * *

Assay: 7-day repeat-dose oral toxicity and toxicokinetic study, Phase II (non-GLP)
Assay type: in vivo
Settings: both sexes, Beagle, dog, in vivo, 300 mg/kg/day; 30, 100, 300 mg/kg/d, days 1 and 7
VALUE_KIND: Tmax

Problem: Provide only the value of recorded Tmax for CCN(CC)C(=O)c1ccccc1S(=O)(=O)NCC(=O)Nc1ccc(O)cc1 [SRP-001]
Result: 0.5 to 1.5 h

* * *

Experiment: Phase 1 single ascending dose (SAD) pharmacokinetics incl. food effect
Format: in vivo, human
Details: human, plasma, oral, 300 mg, fasted; geometric mean; read-out: AUC(0–48)
VALUE_KIND: AUC(0-t) (ng·h/mL)
Hi! Could you send only the number? It should be in ng·h/mL, unit omitted.

Problem: Tell me its AUC(0-t) given "CCN(CC)C(=O)c1ccccc1S(=O)(=O)NCC(=O)Nc1ccc(O)cc1" as the entry.
Result: 1630

* * *

Experiment: 5-day repeat-dose oral toxicity and toxicokinetic study (non-GLP)
Assay type: in vivo, rats
Conditions: Sprague-Dawley, rat, blood, po, low dose
VALUE_KIND: Tmax (h)
Answer format: numeric, h implied, no suffix.

Problem: Output measured Tmax for this item: "CCN(CC)C(=O)c1ccccc1S(=O)(=O)NCC(=O)Nc1ccc(O)cc1"
Result: 3

* * *

Assay: Phase 1 single ascending dose (SAD) pharmacokinetics incl. food effect
Assay type: in vivo, human
Conditions: human, plasma, po, 900 mg, Cohort 3, Period 2: Regimen D, 900 mg oral suspension, Fed, N 6
VALUE_KIND: Tmax

Problem: Output measured Tmax for this item: CCN(CC)C(=O)c1ccccc1S(=O)(=O)NCC(=O)Nc1ccc(O)cc1 [SRP-001]
Result: 1 to 8 h

* * *

Assay: Phase 1 single ascending dose (SAD) pharmacokinetics incl. food effect
Format: in vivo, human
Conditions: human, plasma, oral, 2000 mg, Cohort 4, Regimen E, 2000 mg, Fasted; geometric mean (geometric CV%); read-out: AUC0-24
VALUE_KIND: AUC(0-t) (ng·h/mL)
Use ng·h/mL as the unit, but write only the number.

Problem: Supply reported AUC(0-t) belonging to this compound: "CCN(CC)C(=O)c1ccccc1S(=O)(=O)NCC(=O)Nc1ccc(O)cc1"
Result: 18900

* * *

Assay: Phase 1 single ascending dose (SAD) pharmacokinetics incl. food effect
Format: in vivo, human
Conditions: human, plasma, oral, 900 mg, Cohort 3, Regimen C, Fasted; geometric mean (geometric CV%)
VALUE_KIND: half-life (h)
Numbers only here, please. The scale is h.

Problem: Item "CCN(CC)C(=O)c1ccccc1S(=O)(=O)NCC(=O)Nc1ccc(O)cc1" : provide half-life
Result: 3.3
